# Lookup of reported apparent Kd (screen) keyed by entry
Molecular target: T1, TNFR1 (Homo sapiens, UniProt P19438)
T1 chain: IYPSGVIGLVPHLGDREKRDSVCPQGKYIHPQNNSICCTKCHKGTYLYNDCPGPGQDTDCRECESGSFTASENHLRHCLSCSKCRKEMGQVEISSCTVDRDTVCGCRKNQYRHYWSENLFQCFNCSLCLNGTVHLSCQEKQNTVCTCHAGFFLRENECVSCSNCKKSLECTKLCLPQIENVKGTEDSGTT
Test: yeast display SC50
VALUE TYPE: apparent Kd (screen) (nM)

BINDER	READOUT UNIT	EXPERIMENTAL VALUE
I87S (designed binder) SMEEEVEKAAKEYEKKKKEAIEKHLEKLKAKDKEAAERFLKELEEAAKEYAKDEAKTMSEEEAKRRAKKYKEKVLLSELSEEEQKESKEAEEKLVRTILKYVEEAAK	nM	12.5
Y101E (designed binder) SMEEEVEKAAKEYEKKKKEAIEKHLEKLKAKDKEAAERFLKELEEAAKEYAKDEAKTMSEEEAKRRAKKYKEKVLLSELSEEEQKEIKEAEEKLVRTILKEVEEAAK	nM	0.405
E62S (designed binder) SMEEEVEKAAKEYEKKKKEAIEKHLEKLKAKDKEAAERFLKELEEAAKEYAKDEAKTMSEESAKRRAKKYKEKVLLSELSEEEQKEIKEAEEKLVRTILKYVEEAAK	nM	0.49
E26H (designed binder) SMEEEVEKAAKEYEKKKKEAIEKHLHKLKAKDKEAAERFLKELEEAAKEYAKDEAKTMSEEEAKRRAKKYKEKVLLSELSEEEQKEIKEAEEKLVRTILKYVEEAAK	nM	0.539
R38D (designed binder) SMEEEVEKAAKEYEKKKKEAIEKHLEKLKAKDKEAAEDFLKELEEAAKEYAKDEAKTMSEEEAKRRAKKYKEKVLLSELSEEEQKEIKEAEEKLVRTILKYVEEAAK	nM	3
R38I (designed binder) SMEEEVEKAAKEYEKKKKEAIEKHLEKLKAKDKEAAEIFLKELEEAAKEYAKDEAKTMSEEEAKRRAKKYKEKVLLSELSEEEQKEIKEAEEKLVRTILKYVEEAAK	nM	1.4
K93N (designed binder) SMEEEVEKAAKEYEKKKKEAIEKHLEKLKAKDKEAAERFLKELEEAAKEYAKDEAKTMSEEEAKRRAKKYKEKVLLSELSEEEQKEIKEAEENLVRTILKYVEEAAK	nM	1.27
D32V (designed binder) SMEEEVEKAAKEYEKKKKEAIEKHLEKLKAKVKEAAERFLKELEEAAKEYAKDEAKTMSEEEAKRRAKKYKEKVLLSELSEEEQKEIKEAEEKLVRTILKYVEEAAK	nM	7.07
